Tested on: FB
TEST METHOD NOTES: Euclidean distance of Cell Painting phenotypic profile (signed KS, 77 features) to DMSO centroid (dimensionless distance); 5 or 10 uM (library dependent); higher = stronger phenotypic change vs DMSO (phenoactivity)
COND: 48 h
Where a name gives a salt, the structure may show the parent alone.
EXPERIMENTAL ENDPOINT: Euclidean distance

Solved entries:
> print(dat)
                                   compound  endpoint.result
1  CN1CCN2c3ncccc3Cc3ccccc3C2C1 (stereo not drawn)            0.869
2  O=C(O)C(=O)O.[NH-][C@@H]1CCCC[C@H]1[NH-].[Pt+2]             2.95

Working through the 3 compounds below one at a time, give Euclidean distance for each.
1. CNCc1ccc(-c2cc(-c3nc(-c4ccc(S(=O)(=O)C(C)C)cc4)cnc3N)on2)cc1
2. O=C(CCCN1CCC(O)(c2ccc(Cl)cc2)CC1)c1ccc(F)cc1
3. C[C@H](Cn1cnc2c(N)ncnc21)OCP(=O)(O)O

1: 4.87; 2: 1.09; 3: 0.924

Working through the 8 compounds below one at a time, give Euclidean distance for each.
1. CC(=O)[C@H]1CC[C@H]2[C@@H]3C[C@H](C)C4=CC(=O)CC[C@]4(C)[C@H]3[C@@H](O)C[C@]12C
2. Clc1ccc(C(Cn2ccnc2)OCc2ccc(Sc3ccccc3)cc2)c(Cl)c1 (stereo not drawn) [Fenticonazole Nitrate]
3. COCCOc1cnc2ccn([C@H](C)c3nnc4c(F)cc(-c5cnn(C)c5)cn34)c(=O)c2c1
4. CC(C)(Oc1ccc(C2CC2(Cl)Cl)cc1)C(=O)O (stereo not drawn) [Ciprofibrate]
5. CC(C)[C@H]1C(=O)N[C@@H](CCCN=C(N)N)C(=O)NCC(=O)N[C@@H](CC(=O)O)C(=O)N[C@H](Cc2ccccc2)C(=O)N1C
6. CN1[C@@H]2CC[C@H]1C[C@@H](OC(c1ccccc1)c1ccccc1)C2 [Benztropine mesylate]
7. NCc1ccc(S(N)(=O)=O)cc1 [Mafenide hydrochloride]
8. COCCc1ccc(OCC(O)CNC(C)C)cc1 (stereo not drawn) [Metroprolol succinate]

[1.72, 1.21, 1.29, 0.589, 1.25, 1.56, 0.654, 1.14]

Working through the 5 compounds below one at a time, give Euclidean distance for each.
1. O=C(NCc1ccc(Oc2ccccc2)cc1)c1nc(-c2cc(Br)c(O)c(Br)c2)no1
2. COc1ccc(-c2coc3cc(O)ccc3c2=O)cc1
3. NC(=O)[C@@H]1CC[C@@H]2CN1C(=O)N2OS(=O)(=O)O [Avibactam sodium]
4. NCCNc1ccc(NCCN)c2c1C(=O)c1ccncc1C2=O [Pixantrone Maleate]
5. O=C1NC(=O)/C(=C/c2cccc(C(F)(F)F)c2)S1

[0.788, 1.07, 0.925, 4.14, 1.49]

* * *

Tested on: OVCAR4
TEST METHOD NOTES: Euclidean distance of Cell Painting phenotypic profile (signed KS, 77 features) to DMSO centroid (dimensionless distance); 5 or 10 uM (library dependent); higher = stronger phenotypic change vs DMSO (phenoactivity)
COND: 48 h
Structures can show the parent of a compound that is named as a salt.
EXPERIMENTAL ENDPOINT: Euclidean distance
Give bare numbers.

Solved entries:
COMPOUND	Euclidean distance
Cc1cc(Nc2ncnc3ccc(NC4=NC(C)(C)CO4)cc23)ccc1Oc1ccn2ncnc2c1	1.29
CC1=CC(=O)c2ccccc2C1=O	2.12
C[C@H]1O[C@@H](O[C@H]2CC[C@@]3(C)[C@@H](CC[C@]4(C)[C@@H]3C=C[C@]35OC[C@@]6(CCC(C)(C)C[C@H]63)[C@H](O)C[C@]54C)[C@]2(C)CO)[C@H](O)[C@@H](O[C@@H]2O[C@H](CO)[C@@H](O)[C@H](O)[C@H]2O)[C@H]1O	2.92
Cc1ccccc1C(OCCN(C)C)c1ccccc1 (centres undefined) [Orphenadrine Hydrochloride]	1.08

Working through the 8 compounds below one at a time, give Euclidean distance for each.
1. O=C(O)c1cc(-c2ccccc2)nc2ccccc12
2. O=c1c(O)c(-c2ccc(O)cc2)oc2cc(O)cc(O)c12
3. COc1cc2nc(N3CCN(C(=O)c4ccco4)CC3)nc(N)c2cc1OC [Prazosin HCl]
4. CN(C)CCn1nnnc1SCC1=C(C(=O)O)N2C(=O)[C@@H](NC(=O)Cc3csc(N)n3)[C@H]2SC1 [Cefotiam hydrochloride]
5. COC(=O)Nc1ccc(-c2nc(N3CCOCC3)c3cnn(C4CCN(C(=O)OC)CC4)c3n2)cc1
6. CN(C(=O)CN(CCO)CC(=O)N(C)C(C)(C)Cc1ccccc1)C(C)(C)Cc1ccccc1
7. COc1ccc2[nH]c([S@@+]([O-])Cc3ncc(C)c(OC)c3C)nc2c1 [Esomeprazole Sodium]
8. O[C@@H](COc1cccc2ncccc12)CN1CCN(C2c3ccccc3[C@@H]3[C@H](c4ccccc42)C3(F)F)CC1 (some centres undefined)

1: 0.992; 2: 1.45; 3: 0.59; 4: 0.935; 5: 4; 6: 1.96; 7: 1.34; 8: 1.43
